Reported CMK %inh values are given for each entry in this list.
# Test system: CMK
# Design: species or system AML cell lines (8); Primary HTS, single concentration about 10 uM, Cell Titer Glo viability; log10 luminescence, per cent inhibition relative to cycloheximide control
# reported_conditions: 72 h, relative to cycloheximide control, log10 luminescence; inhibitor
Lab book: enter the figure in %, no units written.

// known answers, use as guide
FC(F)(F)c1ccc(-c2nn3ncccc3c2-c2ccnc(Nc3ccc4c(c3)OCCO4)n2)cc1 | -4.267
OCCn1c(-c2ccncc2)c(-c2ccc(F)cc2)c2ncccc21 | 5.975
CC(=O)N[C@@H](Cc1ccc(OP(=O)(O)O)cc1)C(=O)N[C@H]1CCC(=O)N2CCC[C@@H](C(=O)NC3CCc4ccccc43)N2C1=O (some centres unmarked) | 1.012

Input: Determine its reported CMK %inh: `NC(=O)c1ccc(-c2nc(-c3ccccn3)c(-c3ccc4c(c3)OCO4)[nH]2)cc1`
Output: 9.718

Input: Report CMK %inh for C[C@H](CC[C@@H]1OC1(C)C)[C@H]1CC[C@H]2[C@@H]3CC=C4C[C@@H](O)CC[C@]4(C)[C@H]3CC[C@]12C [SJ000561052-1, 24(S),25-EPOXYCHOLESTEROL]
Output: 11.77
